Origin of the recorded values: PubChem BioAssay (NCI)

- System: A549 NSCLC
- experimentNotes: NCI tumour cell line growth inhibition, 48 h; in the data active means GI50 below about 0.43 µM; inactive means the rest
Lab note: assign the record to one of Yes (active), No (inactive)

Field: example entries. Status: answers known.
structureSmiles	classAssignment
CC[O-].CC[O-].O=C1C(=C([O-])c2ccccc2)C(=O)c2ccccc21.O=C1C(=C([O-])c2ccccc2)C(=O)c2ccccc21.[Ti+4]	No
C[n+]1cc2c3c(ccc2c2ccc4cc5c(cc4c21)OCO5)OCO3	Yes
Fc1cccc(COc2ccc(Nc3ncnc4sc(-c5ccco5)cc34)cc2Cl)c1	No

Record lookup: outcome of this test for Cc1cccc(NC(=O)c2sc3nc4c(cc3c2N)CCCC4)c1C ?
No

====

Would you kindly list TGI for each of these compounds?
- Test system: HOP-92 NSCLC
- experimentNotes: NCI tumour cell line growth inhibition, 48 h
Give bare numbers, in µM.

Please review the entries below; each comes with its answer.
compound	unitSpec	TGI
COc1cc2cc(Oc3ccc(NC(=O)c4cccc(C(F)(F)F)c4)cc3)c(C)nc2cc1OC	µM	33.2
COc1ccc(OC/C(N=Cc2ccncc2)=N/NC(=O)c2ccncc2)cc1	µM	96.4
CC1(C)C(=O)C(O)=CC2C1=CCC1C2(C)C(=O)CC2(C)C(C(C)(O)C(=O)CC(O)C(C)(C)O)C(O)CC12C (centres undefined)	µM	4.56

The compound listed as COc1ccc(C2=C(Cl)C(=O)O/C2=C\c2ccc(OC)c(Br)c2)cc1Cl shows TGI equal to 49.9

====

Would you kindly list TGI for each of these compounds?
- Test system: SN12C renal
- experimentNotes: NCI tumour cell line growth inhibition, 48 h

compound	TGI
CC(C)c1ccc2nc3ccc(C(=O)NCCN(C)C)cn3c(=O)c2c1	35.9 µM
CC(=O)C1(O)CCC2(O)C3(O)CC=C4CC(O)CCC4(C)C3CC(OC(=O)c3ccc(O)cc3)C12C (stereo not given)	> 100 µM
NC(N)=NS(=O)(=O)c1ccc(NC(=O)c2cccc3c(NNc4ccc(S(N)(=O)=O)cc4)c4ccccc4nc23)cc1	> 100 µM
COC(=O)c1ccc2c(c1)C(NC(C)=O)CCc1cc(OC)c(OC)c(OC)c1-2 (stereo not given)	> 96.1 µM
C#C[C@]1(O)CC[C@H]2[C@@H]3CC=C4c5nc(Nc6ccccn6)sc5CC[C@]4(C)[C@H]3CC[C@@]21C	3.62 µM

I need TGI for every entry listed below, if you could help.
1. COC(=O)c1nc(NN)[nH]c(=O)c1CCCCCc1c(C(=O)OC)[nH]c(NN)cc1=O
2. CC(C)N(C(=O)C12C3C4C1C1C2C3C41C(O)C(C)(C)C)C(C)C (stereo not given)
3. CCN(CCCCCCCCCCN1CC(=O)N(CCCCCCCCCCN(CC)Cc2ccccc2OC)CC1=O)Cc1ccccc1OC
4. Cc1cc(C)c2c(c1)CN1CN2Cc2cc(C)cc(C)c21
5. c1c(N2CCOCC2)ssc1=[N+]1CCOCC1
6. Cc1cc2c(cc1C)NC1=C(N2)OC(c2c[nH]c3ccc(COc4ccccc4)cc23)C1=O (stereo not given)
7. C=C1C[C@@H]2CC[C@@]34C[C@H]5O[C@H]6[C@@H](O3)[C@H]3O[C@H](CC[C@@H]3O[C@H]6[C@H]5O4)CC(=O)C[C@@H]3[C@@H](OC)[C@@H](C[C@H](O)CN)O[C@H]3C[C@H]3O[C@@H](CC[C@@H]1O2)C[C@@H](C)C3=C
8. CN1C2CC(C#N)C1C=CC2=O (stereo not given)

1: > 100 µM; 2: > 50 µM; 3: 3.57 µM; 4: 32.6 µM; 5: > 100 µM; 6: > 100 µM; 7: > 1 µM; 8: > 100 µM

I need TGI for every entry listed below, if you could help.
1. COc1ccc([C@H]2CC(=O)N3CCCC3N2)cc1 (stereo not given in full)
2. C=C1CC(COc2ccc3c(C)c(C)c(=O)oc3c2C)(c2ccccc2)OC1=O (stereo not given)
3. C/C(=N\O)c1ccc(Nc2cc(-n3nnc4ccccc43)nc3ccccc23)cc1
4. N#C/C(=C\c1cccc(Br)c1)c1nc2ccccc2c(=O)[nH]1

1. > 100 µM
2. 11.3 µM
3. 14.2 µM
4. > 100 µM

I need TGI for every entry listed below, if you could help.
1. CCc1ccccc1NC(=O)C(=O)C(C(=O)c1ccc(OC)cc1)c1ccc(OC)cc1 (stereo not given)
2. CC1(C)CCC(C)(C)c2cc(C(=O)Nc3ccc(C(=O)O)cc3)ccc21
3. COc1cc(-c2oc3ccccc3c(=O)c2O)cc(OC)c1OC

["> 100 µM", "> 100 µM", "> 100 µM"]

====

Would you kindly list TGI for each of these molecules?
- Tested on: SF-539 CNS
- experimentNotes: NCI tumour cell line growth inhibition, 48 h
Answers are plain numbers, in µM.

I need TGI for every entry listed below, if you could help.
1. COc1ccc(C(=O)N2c3ccccc3Sc3ccccc32)c(F)c1
2. CCCCCCc1cc2cc(-c3csc(-c4ccc(OC)cc4)n3)c(=O)oc2cc1O

1. 3.36
2. 25.6

I need TGI for every entry listed below, if you could help.
1. CC(C)c1ccc2nc3ccc(C(=O)NCCN(C)C)cn3c(=O)c2c1
2. C[n+]1cc2c3c(ccc2c2ccc4cc5c(cc4c21)OCO5)OCO3
3. COC(=O)C1=C(C)NC(C)=C(C(=O)OC)C1c1cccc(N=O)c1
4. NS(=O)(=O)c1ccc(N2Cc3cc(Cl)ccc3OC3=C2C(=O)N(CC2CCCCC2)C3=O)cc1
5. Clc1ccccc1NN(Cc1ccccn1)c1ccccc1Cl

1: 29.2; 2: 3.02; 3: 33.5; 4: 2.82; 5: 36.6

====

Would you kindly list GI50 for each of these compounds?
- Test system: CAKI-1 renal
- experimentNotes: NCI tumour cell line growth inhibition, 48 h

Please review the entries below; each comes with its answer.
compound	targetSystem	GI50
O=C1/C(=C/c2ccc(Cl)cc2)CCCc2ccc(F)cc21	CAKI-1 renal	22.5 µM
CC(C)N(C(C)C)[PH+]1O[PH+](N(C(C)C)C(C)C)O[PH+](N(C(C)C)C(C)C)O[PH+](N(C(C)C)C(C)C)O[PH+](N(C(C)C)C(C)C)O1.[C-]#[O+].[C-]#[O+].[C-]#[O+].[C-]#[O+].[C-]#[O+].[C-]#[O+].[C-]#[O+].[Cr].[Cr] (stereo not given)	CAKI-1 renal	> 100 µM
CS(=O)(=O)c1ccc(Cl)c([N+](=O)[O-])c1	CAKI-1 renal	2.05 µM
CC[O-].CC[O-].O=C1C(=C([O-])c2ccccc2)C(=O)c2ccccc21.O=C1C(=C([O-])c2ccccc2)C(=O)c2ccccc21.[Ti+4]	CAKI-1 renal	29.6 µM
Cn1cc(C2=C(c3cn(C)c4ccc(N)cc34)C(=O)NC2=O)c2ccccc21	CAKI-1 renal	4.85 µM
COc1cc(/C=C2\CN(C)CC3=C2Nc2nc(SC)[nH]c(=O)c2C3c2cc(OC)c(OC)c(OC)c2)cc(OC)c1OC (stereo not given)	CAKI-1 renal	2.15 µM
CCN(CCCCCCCCCCN1CC(=O)N(CCCCCCCCCCN(CC)Cc2ccccc2OC)CC1=O)Cc1ccccc1OC	CAKI-1 renal	1.57 µM
CC(=O)c1cccc(N(/C=C/C(=O)C(F)(F)F)CC(=O)c2ccc(Cl)cc2)c1	CAKI-1 renal	> 100 µM
Cc1ccc(C(=O)Nc2ccc(CN3CCN(C)CC3)c(C(F)(F)F)c2)cc1C#Cc1cnc(N)c2ccc(F)cc12	CAKI-1 renal	0.216 µM

Form field, GI50 with CAKI-1 renal, item CC1(C)N=C(N)N=C(N)N1c1ccc(CCc2ccccc2)c(Cl)c1 : 3.99 µM

====

- Test system: SK-MEL-2 melanoma
- experimentNotes: NCI tumour cell line growth inhibition, 48 h
Lab note: compare TGI against 7 µM. Equal or greater, write true. Smaller, write false.

Field: example entries. Status: answers known.
compound	classAssignment
Cc1cc2c(C(C)C)c(O)c(O)c(C=Nc3cc(C(F)(F)F)ccc3Cl)c2c(O)c1-c1c(C)cc2c(C(C)C)c(O)c(O)c(C=Nc3cc(C(F)(F)F)ccc3Cl)c2c1O	true
CC(=O)OC1CC2(O)C(CCC3(C)C(c4ccc(=O)oc4)CCC32O)C2(C)C1=CC(O)C1OC12 (centres undefined)	false
Nc1nc2c(ncn2Cc2ccccc2CCO)c(=O)[nH]1	true
NS(=O)(=O)c1ccc(N2Cc3cc(Cl)ccc3OC3=C2C(=O)N(CC2CCCCC2)C3=O)cc1	false
CS(=O)(=O)c1ccc(Cl)c([N+](=O)[O-])c1	true
Cc1cc(N(CCNc2ccnc3cc(Cl)ccc23)Cc2ccc3c(c2)OCO3)nc(N2CCN(C)CC2)n1	false
CC(C)(C)c1cc(/C=C2/NC(=O)NC2=O)cc(C(C)(C)C)c1O	true
Cc1cccc(NC(=O)c2sc3nc4c(cc3c2N)CCCC4)c1C	true
O=C1CS/C(=N/N=C/c2cn(Cc3ccc(Cl)cc3Cl)c3ccccc23)N1	true
COC(=O)c1ccc2c(c1)C(NC(C)=O)CCc1cc(OC)c(OC)c(OC)c1-2 (centres undefined)	false

Check this compound for TGI at or above 7 µM: O=C1/C(=C/c2ccncc2)C(n2cccc2)c2c(Br)sc(Br)c21 (centres undefined)
false

Check this compound for TGI at or above 7 µM: CSc1ccc(C2=Nn3c(nnc3-c3ccc(F)c(Cl)c3)SC2)cc1
true

Check this compound for TGI at or above 7 µM: COC(=O)C1=CCON(c2ccccc2)C1c1ccccc1 (centres undefined)
true

Check this compound for TGI at or above 7 µM: COc1ccc(C(C2=C(C)C(=O)c3ccccc3C2=O)c2ccc(C(C)C)cc(=O)c2O)cc1 (centres undefined)
true
